- study-system: TAF1-BD1 (Homo sapiens, UniProt P21675)
- protocol-summary: TAF1-BD1 TR-FRET Binding Assay
- condition: read-out: TAF1-BD1 HTRF IC50
measured-metric: IC50

Input line: Consider the molecule CCOC(=O)c1c(C)[nH]c2c(=O)n(C)cc(C#C[C@@H]3CCC[C@H]3O)c12 (stereo in doubt) . State its measured IC50.
Output line: 2590 nM

Input line: Consider the molecule CC(=O)NCc1nnc(-c2c(C)[nH]c3c(=O)n(C)cc(C#CC(C)(O)C4CC4)c23)o1 (centres unmarked) . State its measured IC50.
Output line: 521 nM

Input line: Consider the molecule Cc1[nH]c2c(=O)n(C)cc(C#CC(C)(O)c3ccccc3)c2c1C(=O)OC(C)(C)C (centres unmarked) . State its measured IC50.
Output line: 318 nM

Input line: Consider the molecule CCOC(=O)c1c(C)[nH]c2c(=O)n(C)cc(C#CC(O)(c3ccccc3)C(F)(F)F)c12 (single isomer, unassigned) [Example 91b] . State its measured IC50.
Output line: 184 nM

Input line: Consider the molecule `C=CCCn1cc(C#C[C@@](C)(O)c2cc(C)on2)c2c(C(=O)OCc3ccccc3C)c(C)[nH]c2c1=O` . State its measured IC50.
Output line: > 20000 nM

Input line: Consider the molecule `Cc1cc2c(C#CC(C)(C)O)cn(C)c(=O)c2[nH]1` . State its measured IC50.
Output line: 1740 nM

Input line: Consider the molecule `Cc1[nH]c2c(=O)n(C)cc(C#CC(C)(C)O)c2c1C(=O)OCC(C)(C)C` . State its measured IC50.
Output line: 93.6 nM

Input line: Consider the molecule Cc1[nH]c2c(=O)n(C)cc(C#CC(C)(C)O)c2c1C(=O)OC(C)c1ccccc1 (centres unmarked) . State its measured IC50.
Output line: 260 nM

src = patent US10202378B2
